Test: Mouse pharmacokinetic studies
Assay type: in vivo, male C57BL/6J mice
Conditions: male, C57BL/6J, in vivo, PO 5 mg/kg
observable: AUC(0-inf)
Kindly report the value followed by its unit.

Query :: Requested read-out: AUC(0-inf). Entry: Cc1ncccc1[C@@H](O)CNC(C)(C)C
Result :: 3020 ng·h/mL

---

Experiment: Dog pharmacokinetic studies
Type: in vivo, male Beagle dogs
Conditions: male, Beagle, plasma, PO 0.3 mg/kg
observable: Cmax

Query :: Requested read-out: Cmax. Entry: CC(C)(C)NC[C@H](O)c1cccc(C#N)n1 [Compound 03-5]
Result :: 43.2 ng/mL

---

So I've got a bunch of molecules here, and I need their EC50 values.
Target: β1-adrenergic receptor (Homo sapiens (Human))
Sequence (P08588 whole entry, species assumed): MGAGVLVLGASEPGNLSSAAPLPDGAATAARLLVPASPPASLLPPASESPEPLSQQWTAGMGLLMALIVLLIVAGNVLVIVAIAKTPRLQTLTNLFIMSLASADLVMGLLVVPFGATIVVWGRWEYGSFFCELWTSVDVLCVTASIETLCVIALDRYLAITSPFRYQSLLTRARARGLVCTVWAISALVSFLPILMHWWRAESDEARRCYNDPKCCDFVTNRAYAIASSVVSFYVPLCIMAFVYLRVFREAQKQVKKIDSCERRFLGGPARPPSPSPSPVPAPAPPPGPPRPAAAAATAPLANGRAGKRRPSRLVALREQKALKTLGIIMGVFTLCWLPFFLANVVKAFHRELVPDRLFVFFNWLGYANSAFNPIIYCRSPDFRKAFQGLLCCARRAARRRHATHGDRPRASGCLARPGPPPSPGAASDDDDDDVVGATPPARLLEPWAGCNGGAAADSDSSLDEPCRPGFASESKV
Experiment: cAMP Gs dynamic HTRF assay, β1 expressing CHO cells
Assay type: cell-based
Conditions: B1-AR; CHO-K cells; read-out: Average EC50 [Receptor subtype: B1-AR; Cell type: CHO-K]

> print(dat)
                                   molecule  recorded.result
1  Cc1cc([C@@H](O)CNC(C)(C)C)nc(C(F)(F)F)c1   100 to 1000 nM
2          Cc1ccc([C@H](O)CNC(C)(C)C)nc1C#N     10 to 100 nM

For every item in the list below, what is its measured EC50?
1. O[C@@H](CNC1Cc2ccccc2C1)c1cccc(C(F)(F)F)n1
2. CN(C)c1cccc([C@H](O)CNC(C)(C)C)n1
3. CC(C)(C)NC[C@H](O)c1cccc(C(F)F)n1
4. CCOc1cccc([C@@H](O)CNC(C)(C)C)n1
5. CC(C)(C)NC[C@H](O)c1cccc(OC(F)(F)F)n1
6. CC(C)NC[C@@H](O)c1cccc(C(F)(F)F)n1
7. CC(C)(C)NC[C@@H](O)c1cccc(N2CCCCC2)n1

Result ::
1. 100 to 1000 nM
2. > 1000 nM
3. 10 to 100 nM
4. 10 to 100 nM
5. 10 to 100 nM
6. > 1000 nM
7. > 1000 nM

For every item in the list below, what is its measured EC50?
1. CC(C)(C)NC[C@H](O)c1cccc(-c2nnn[nH]2)n1
2. CC(C)(C)NC[C@H](O)c1cccc(N2CCCC2)n1
3. CC(C)(C)NC[C@H](O)c1cccc(C#N)n1
4. CNc1cccc([C@@H](O)CNC(C)(C)C)n1
5. Cc1ccc([C@@H](O)CNC(C)(C)C)nc1
6. CC(C)(C)NC[C@@H](O)c1cccc(-n2cccc2)n1

Result ::
["> 1000 nM", "100 to 1000 nM", "100 to 1000 nM", "100 to 1000 nM", "10 to 100 nM", "100 to 1000 nM"]

---

Experiment: Rat pharmacokinetic studies
Assay type: in vivo, male SD rats
Details: male, SD, plasma, PO 5 mg/kg
So I've got a bunch of compounds here, and I need their Cmax values.
One number for each entry, in ng/mL.

> print(dat)
                               molecule  observable  recorded.result
1  CC(C)(C)NC[C@H](O)c1cccc(C(F)(F)F)n1        Cmax              818

Okay, next one:
Query :: Requested read-out: Cmax. Entry: CC(C)(C)NC[C@H](O)c1cccc(C#N)n1
Result :: 717
